- Tested on: EKVX NSCLC
- ASSAY_METHOD_TEXT: NCI tumour cell line growth inhibition, 48 h
REPORTED_ENDPOINT: TGI

Here is how some compounds turned out for TGI.
| COMPOUND | RECORDED_MEASUREMENT |
| --- | --- |
| [N-]=[N+]=Nc1ccccc1Oc1ccccc1 | > 100 µM |
| O=C1CN2C(Cl)(Cl)C2(c2ccccc2)c2cc(Cl)ccc2N1CC1CC1 (stereo not given) | 89.1 µM |
| O=C(Cn1ccnc1[N+](=O)[O-])c1ccccc1 | > 100 µM |
| Nc1cc(-c2ccccc2)nn1-c1nsc2ccccc12 | > 100 µM |
| Cc1ccc(S(=O)(=O)N/N=C2\CC3C4C=CC3C2C4)cc1 (stereo not given) | > 100 µM |

Query: What value of measured TGI is listed for O=[N+]([O-])c1ccccc1S(=O)(=O)c1cc(O)cc2c1NCCC2 ?
Result: 30.7 µM

Query: What value of measured TGI is listed for Cc1ncc([N+](=O)[O-])n1CCNC(=O)CCCn1ccnc1[N+](=O)[O-] ?
Result: > 100 µM

Query: What value of measured TGI is listed for CC(C)(C)C1CCC2c3c([nH]c4ccccc34)C3C(=O)N(c4cccc([N+](=O)[O-])c4)C(=O)C3C2C1 (stereo not given) ?
Result: 66.8 µM

Query: What value of measured TGI is listed for COc1ccc(NC(=O)/C(Cc2nc3ccccc3[nH]c2=O)=N\O)c(OC)c1 ?
Result: > 100 µM

Query: What value of measured TGI is listed for C[C@@H]1C[N+]2([O-])[C@H]3C4=CCC[C@@H]4CC[C@H]3[C@@]3(C)OC(=O)CC[C@]34CC[C@H]1[C@@H]42 (stereo not given in full) ?
Result: > 60 µM

Query: What value of measured TGI is listed for C(#Cc1cnccn1)/C=C\C#Cc1cnccn1 ?
Result: 16 µM

Query: What value of measured TGI is listed for Cc1cc(S(=O)(=O)n2ccnc2Oc2cccc(Cl)c2)c(SSc2cc(Cl)c(C)cc2S(=O)(=O)n2ccnc2Oc2cccc(Cl)c2)cc1Cl ?
Result: > 100 µM

Query: What value of measured TGI is listed for O=C(O)c1cc(C(=O)O)nc(C(=O)O)c1 ?
Result: > 100 µM
